Entries annotated with measured Ki
Target: Endothelin-1 receptor (Homo sapiens, UniProt P25101)
Sequence (P25101 whole entry): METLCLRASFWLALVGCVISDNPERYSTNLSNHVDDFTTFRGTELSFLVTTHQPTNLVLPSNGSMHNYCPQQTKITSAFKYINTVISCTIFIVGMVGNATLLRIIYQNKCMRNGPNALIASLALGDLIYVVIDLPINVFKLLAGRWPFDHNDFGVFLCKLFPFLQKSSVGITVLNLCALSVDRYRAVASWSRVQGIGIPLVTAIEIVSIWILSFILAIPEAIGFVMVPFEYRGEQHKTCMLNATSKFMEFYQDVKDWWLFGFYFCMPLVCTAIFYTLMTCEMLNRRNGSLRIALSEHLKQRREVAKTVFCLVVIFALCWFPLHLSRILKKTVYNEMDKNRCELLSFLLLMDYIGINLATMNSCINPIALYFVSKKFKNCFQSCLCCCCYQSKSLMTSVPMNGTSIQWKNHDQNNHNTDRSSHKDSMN
Where a SMILES comes first, the peptide text is derived from it. [ ]: non-standard residue; d: D form.
Write the value in µM as a bare number.

Some solved entries appear below for comparison.
{"columns": ["COMPOUND", "DISPLAY UNIT", "Ki"],
 "data": [
  ["CCCN1c2ccccc2C(=O)N(CC(=O)O)c2cc(NC(=O)c3c[nH]c4ccccc34)ccc21", "µM", 80],
  ["O=C(O)CN1C(=O)c2ccccc2Nc2ccc(OCc3cccc4ccccc34)cc21", "µM", 28],
  ["CC(C)C[C@@H]1NC(=O)[C@@H](C(C)C)NC(=O)[C@@H]2CCCN2C(=O)[C@@H](CC(=O)O)NC(=O)[C@@H](Cc2cccc3ccccc23)NC1=O", "µM", 0.224]
]}

The record that follows has no Ki shown yet.
Answer briefly: Ki recorded on Endothelin-1 receptor (Homo sapiens, UniProt P25101) for CC(C)C[C@@H]1NC(=O)[C@@H](C(C)C)NC(=O)[C@@H]2CCCN2C(=O)[C@@H](CC(=O)O)NC(=O)[C@@H](Cc2c[nH]c3ccccc23)NC1=O [BQ-123] (cyclo(L[dW][dD]P[dV]))
0.018

====

Molecular target: Endothelin receptor type B (Rattus norvegicus)
Sequence (P21451 whole entry): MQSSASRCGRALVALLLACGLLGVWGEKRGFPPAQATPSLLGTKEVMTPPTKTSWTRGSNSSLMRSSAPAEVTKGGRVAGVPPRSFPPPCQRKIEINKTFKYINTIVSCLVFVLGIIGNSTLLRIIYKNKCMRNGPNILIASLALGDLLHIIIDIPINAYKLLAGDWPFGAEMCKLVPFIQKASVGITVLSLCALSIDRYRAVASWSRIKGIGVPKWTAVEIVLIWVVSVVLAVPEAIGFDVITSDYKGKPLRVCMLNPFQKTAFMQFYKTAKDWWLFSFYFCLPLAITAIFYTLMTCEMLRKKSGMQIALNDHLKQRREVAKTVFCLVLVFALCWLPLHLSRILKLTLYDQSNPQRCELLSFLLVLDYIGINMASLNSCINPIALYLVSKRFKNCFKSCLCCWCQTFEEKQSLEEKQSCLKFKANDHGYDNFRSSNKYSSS
pKi: −log10 of the molar value.
Binary call on pKi: 1 from 5 upward, -1 beneath that.

{"columns": ["SUBSTANCE SMILES", "CLASS NAME"],
 "data": [
  ["CCCN1c2ccccc2C(=O)N(CC(=O)O)c2cc(NC(=O)Cc3c[nH]c4ccccc34)ccc21", 1],
  ["O=C(O)CN1C(=O)c2ccccc2Nc2ccc(OCc3ccccc3)cc21", -1]
]}

Test whether the compound CCCN1c2ccccc2C(=O)N(CC(=O)O)c2cc(OCc3cccc4ccccc34)ccc21 records pKi of 5 or higher.
-1
